The entries below are paired with their reported Ki.
# Measurement Target: SHV-12 (Klebsiella pneumoniae, UniProt P0AD64, E235K/G234S/L31Q)
# Sequence (P0AD64 22-286 L31Q/G234S/E235K): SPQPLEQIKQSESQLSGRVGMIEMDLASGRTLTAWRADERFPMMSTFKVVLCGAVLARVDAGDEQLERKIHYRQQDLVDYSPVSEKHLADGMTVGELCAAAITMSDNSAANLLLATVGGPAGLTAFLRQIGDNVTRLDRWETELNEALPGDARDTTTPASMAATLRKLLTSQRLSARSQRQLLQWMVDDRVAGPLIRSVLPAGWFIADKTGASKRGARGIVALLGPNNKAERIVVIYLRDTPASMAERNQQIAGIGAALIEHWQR
# Experimental Protocol: Inhibition of nitrocefin cleavage by purified enzyme
# Condition Set: nitrocefin substrate; read-out: Ki (SHV-12, NCF)

| Query Smiles | Measurement Target | Ki |
| --- | --- | --- |
| Nn1cnnc1S[C@H]1Cc2cccc(C(=O)O)c2OB1O | SHV-12 (Klebsiella pneumoniae, UniProt P0AD64, E235K/G234S/L31Q) | < 100 nM |
| O=C(O)c1cccc2c1OB(O)[C@@H](Sc1nccs1)C2 | SHV-12 (Klebsiella pneumoniae, UniProt P0AD64, E235K/G234S/L31Q) | < 100 nM |
| CC(=O)Nc1nnc(S[C@H]2Cc3cccc(C(=O)O)c3OB2O)s1 | SHV-12 (Klebsiella pneumoniae, UniProt P0AD64, E235K/G234S/L31Q) | < 100 nM |
| Nc1nnc(S[C@H]2Cc3cccc(C(=O)O)c3OB2O)s1 | SHV-12 (Klebsiella pneumoniae, UniProt P0AD64, E235K/G234S/L31Q) | < 100 nM |
| NC(=O)CCS[C@H]1Cc2cccc(C(=O)O)c2OB1O | SHV-12 (Klebsiella pneumoniae, UniProt P0AD64, E235K/G234S/L31Q) | 100 to 1000 nM |
| O=C(O)c1cccc2c1OB(O)[C@@H](Sc1nnc[nH]1)C2 | SHV-12 (Klebsiella pneumoniae, UniProt P0AD64, E235K/G234S/L31Q) | < 100 nM |
| NC(=O)CS[C@H]1Cc2cccc(C(=O)O)c2OB1O | SHV-12 (Klebsiella pneumoniae, UniProt P0AD64, E235K/G234S/L31Q) | 100 to 1000 nM |
